- Recorded Conditions: 305 K; 101.33 kPa; Liquid; Cone and plate viscometry
Measured Attribute: viscosity (mPa·s)

CCn1cc[n+](C)c1.F[B-](F)(F)F [1-ethyl-3-methylimidazolium tetrafluoroborate]: 31

a: CCn1cc[n+](C)c1.N#CN=C=[N-] [1-ethyl-3-methylimidazolium dicyanamide]
b: CCCC[N+]1(C)CCCC1.FC(F)(F)C(F)(F)[P-](F)(F)(F)(C(F)(F)C(F)(F)F)C(F)(F)C(F)(F)F
*Q* Which numeric viscosity is bigger, that of a or that of b ? Mark your answer with the label of the selected entry.
*A* b

----------
- Recorded Conditions: 340 K; 101.33 kPa; Liquid; Cone and plate viscometry
Measured Attribute: viscosity (mPa·s)

Take a look at these entries with their results.
CCC[n+]1ccn(C)c1C.O=S(=O)([N-]S(=O)(=O)C(F)(F)F)C(F)(F)F: 27
CCn1cc[n+](C)c1.N#CN=C=[N-] [1-ethyl-3-methylimidazolium dicyanamide]: 13

I: CCn1cc[n+](C)c1.F[B-](F)(F)F [1-ethyl-3-methylimidazolium tetrafluoroborate]
II: CCCC[N+]1(C)CCCC1.FC(F)(F)C(F)(F)[P-](F)(F)(F)(C(F)(F)C(F)(F)F)C(F)(F)C(F)(F)F
*Q* Compare I and II by numeric viscosity and name the larger one. Field: selected label. Fill in the label of the entry you choose.
*A* II
(II: 47 mPa·s, I: 18 mPa·s)

Value source: the NIST ThermoML archive (doi:10.1021/je900405j)
